All values here come from the NIST ThermoML archive (doi:10.1016/j.fluid.2018.04.007).

test: refractive index (Na D-line) (dimensionless); settings: 293.15 K; 101 kPa; Liquid; Standard Abbe refractometry
Examples of compounds with documented refractive index follow.
Reply with the value as a number alone.

// known answers, use as guide
Q: Quick one: refractive index for CCCCCO ?
Result: 1.40985

Q: I have this compound here, CCCCO , and I need its recorded refractive index.
Result: 1.39931

Q: I would be grateful if you could share the reported refractive index for CCCCCCCO .
Result: 1.42425

Q: Item CCCO has what recorded refractive index?
Result: 1.38514

Q: # query: refractive index of entry CO
Result: 1.32862

Proceeding to the next compound to report its refractive index.
Q: Query: refractive index; subject: CCCCCCN
Result: 1.41808

---

Overview of recorded refractive index for various compounds
experiment: refractive index (Na D-line) (dimensionless); conditions: 303.15 K; 101 kPa; Liquid; Standard Abbe refractometry
// keep it numeric: no unit symbol after the value

Q: Look up refractive index: CCCCCCCO
Result: 1.42047

Q: Using the record for CCCCCCN , report its refractive index.
Result: 1.41321

Q: refractive index for CCCCO ?
Result: 1.39529

Q: // lookup refractive index for CCCCCO
Result: 1.4059

Q: # query: refractive index of entry CO
Result: 1.32439

Next:
Q: For CCCO , what is its reported refractive index?
Result: 1.38102

---

assay: refractive index (Na D-line) (dimensionless); conditions: 298.15 K; 101 kPa; Liquid; Standard Abbe refractometry
experimentalReadout: refractive index
I'd appreciate a reply containing only the number, no unit.

Look over these answered cases.
Q: Report refractive index for CCCCCCN please.
Result: 1.41563

Q: So what does the record say about refractive index for CCCCCCCO ?
Result: 1.42235

Q: Bench note: what refractive index did CO show?
Result: 1.32654

Q: Query (molecule): CCCCO ; field requested: refractive index
Result: 1.39733

Q: What does the data say about its refractive index? Entry: CCCO
Result: 1.38306

---
Q: What does the data say about its refractive index? Entry: CCCCCO
Result: 1.40793

---

assay: relative permittivity at various frequencies (dimensionless); settings: 298.15 K; 101 kPa; Liquid; Frequency=1 MHz; Parallel plate capacitor
experimentalReadout: relative permittivity
Number only, no unit.

Q: Data request, read-out relative permittivity, for CCCCCCCO
Result: 11.504

Further cases:
Q: Looking for the measured relative permittivity of CCCCO , can you help?
Result: 17.545

Q: Could you share which relative permittivity value was measured for CCCCCCN ?
Result: 3.904

Q: // returns reported relative permittivity for input CO
Result: 32.619

Q: Fill in: relative permittivity of CCCCCO is ___
Result: 15.102

Q: Given CCCO , state its recorded relative permittivity.
Result: 20.449

---

Below: a set of entries, each annotated with reported relative permittivity.
assay: relative permittivity at various frequencies (dimensionless); settings: 293.15 K; 101 kPa; Liquid; Frequency=1 MHz; Parallel plate capacitor
± gives the expanded uncertainty stated by the source.

Q: Recorded relative permittivity of CCCCCCCO , please.
Result: 12.019 ± 0.6

Q: For CCCCCCN , what is its reported relative permittivity?
Result: 3.964 ± 0.37

Q: Any idea what relative permittivity was measured for CCCO ?
Result: 21.15 ± 0.78

Q: relative permittivity for CCCCCO ?
Result: 15.701 ± 0.68

Q: Param item = CO ; retrieve measured relative permittivity.
Result: 33.569 ± 0.97

Q: Suppose we examine the molecule CCCCO ; what relative permittivity value has been reported?
Result: 18.192 ± 0.73

---

details: 303.15 K; 101 kPa; Liquid; Vibrating tube method
± gives the expanded uncertainty stated by the source.
experimentalReadout: mass density

Guide cases for mass density, answers given:
Q: Which mass density is reported for this compound? CO
Result: 782.22 ± 1.9 kg/m3

Q: Please report the recorded mass density for CCCO .
Result: 795.66 ± 1.9 kg/m3

Q: For the compound CCCCO , what mass density is on record?
Result: 802.22 ± 1.9 kg/m3

Q: Recorded mass density for CCCCCCN , please?
Result: 755.9 ± 1.8 kg/m3

Q: Given CCCCCO , state its recorded mass density.
Result: 807.35 ± 1.9 kg/m3

Now, please, on to the next compound.
Q: So what's the measured mass density for this one? CCCCCCCO
Result: 815.37 ± 2 kg/m3

---

details: 293.15 K; 101 kPa; Liquid; Vibrating tube method
experimentalReadout: mass density (kg/m3)
Reply numerically in kg/m3, unit not repeated.

Q: Could you share which mass density value was measured for CO ?
Result: 791.63

Q: Returns the measured mass density for the input compound. Input: CCCCCCCO
Result: 822.37

Q: Returns the measured mass density for the input compound. Input: CCCCCCN
Result: 764.43

Q: What mass density value was documented for this compound, CCCCCO ?
Result: 814.66

Others:
Q: I am curious: what mass density value has been reported for CCCO ?
Result: 803.66

Q: For CCCCO , what is its reported mass density?
Result: 809.85

---

conditions: 298.15 K; 101 kPa; Liquid; Vibrating tube method
experimentalReadout: mass density (kg/m3)
Just the number in kg/m3, nothing appended.

Q: Using the record for CCCO , report its mass density.
Result: 799.68

Q: Given the molecule CO , what is its reported mass density?
Result: 786.95

Q: Endpoint output: mass density of CCCCCO . Value?
Result: 811.03

Further cases:
Q: Query: mass density; subject: CCCCCCN
Result: 760.19

Q: # get_value(readout='mass density', item= CCCCO )
Result: 806.06

Q: Any idea what mass density was measured for CCCCCCCO ?
Result: 818.9
